Target: IRE-1α (Homo sapiens (Human), UniProt O75460)
Sequence (O75460 19-977): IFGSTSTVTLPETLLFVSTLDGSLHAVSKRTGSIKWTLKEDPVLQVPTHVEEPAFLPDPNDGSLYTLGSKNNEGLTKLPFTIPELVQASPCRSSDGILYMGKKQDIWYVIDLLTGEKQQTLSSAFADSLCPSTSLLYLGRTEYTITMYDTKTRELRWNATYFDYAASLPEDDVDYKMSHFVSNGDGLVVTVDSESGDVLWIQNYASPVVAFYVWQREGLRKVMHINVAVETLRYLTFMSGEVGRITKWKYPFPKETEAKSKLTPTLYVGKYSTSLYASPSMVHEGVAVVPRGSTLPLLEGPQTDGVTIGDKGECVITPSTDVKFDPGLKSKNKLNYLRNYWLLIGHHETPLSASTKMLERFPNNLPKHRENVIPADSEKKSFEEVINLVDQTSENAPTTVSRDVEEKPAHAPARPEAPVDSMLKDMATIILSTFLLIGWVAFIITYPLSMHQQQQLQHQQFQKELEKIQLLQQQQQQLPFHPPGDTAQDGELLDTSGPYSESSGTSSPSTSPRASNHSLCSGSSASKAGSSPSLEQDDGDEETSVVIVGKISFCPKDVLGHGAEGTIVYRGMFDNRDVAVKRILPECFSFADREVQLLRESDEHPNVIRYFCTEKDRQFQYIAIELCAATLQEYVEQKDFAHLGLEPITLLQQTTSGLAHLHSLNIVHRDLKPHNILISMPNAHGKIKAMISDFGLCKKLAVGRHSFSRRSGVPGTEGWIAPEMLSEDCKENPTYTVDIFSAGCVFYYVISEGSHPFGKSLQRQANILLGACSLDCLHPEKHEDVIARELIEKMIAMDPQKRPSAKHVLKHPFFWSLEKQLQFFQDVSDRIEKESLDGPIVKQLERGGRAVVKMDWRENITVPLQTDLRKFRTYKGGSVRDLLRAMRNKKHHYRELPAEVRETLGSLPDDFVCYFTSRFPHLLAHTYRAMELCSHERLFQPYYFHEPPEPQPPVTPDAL
Test: Cellular EC50: endogenous XBP-1 splicing in myeloma cells (MM.1s, DTT stress, RT-PCR)
Details: average cellular EC50, XBP-1 splicing in myeloma cells
observation-type: EC50

Recorded results for 2 compounds are shown here.
Cc1c(CC(=O)N2CCN(C)CC2)c(=O)oc2c(C=O)c(O)ccc12 | < 10 µM
Cc1oc2c(C=O)c(O)ccc2c(=O)c1CCC(=O)NCCN1CCOCC1 | > 10 µM

List EC50 for every entry below, keeping the order given.
1. CCNC(=O)CCc1c(C)oc2c(C=O)c(O)ccc2c1=O
2. CCNC(=O)CCc1c(C)c2c(OCCOC)cc(O)c(C=O)c2oc1=O
3. CCNC(=O)CCc1c(C)c2cc(OC)c(O)c(C=O)c2oc1=O
4. CCOC(=O)c1cc2c(C=O)c(O)ccc2o1

< 10 µM
< 10 µM
< 10 µM
> 10 µM

List EC50 for every entry below, keeping the order given.
1. COc1cc2c(C)c(C(C)C)c(=O)oc2c(C=O)c1O
2. Cc1oc2c(C=O)c(O)ccc2c(=O)c1CCC(=O)N1CCOCC1
3. COc1cc(O)c(C=O)c2oc(=O)c(C)c(CN3CCOCC3)c12
4. COc1cc2c(C)c(CCC(=O)NCCN(C)C)c(=O)oc2c(C=O)c1O
5. Cn1c(CCC(=O)N2CCOCC2)nc2c(C=O)c(O)ccc21
6. COCCNC(=O)CCc1c(C)oc2c(C=O)c(O)c(OC)cc2c1=O
7. COc1cc2c(CN(C)C)c(C)c(=O)oc2c(C=O)c1O

> 10 µM
< 10 µM
< 10 µM
> 10 µM
> 10 µM
> 10 µM
< 10 µM

List EC50 for every entry below, keeping the order given.
1. CN1CCN(C(=O)CCc2nc3c(C=O)c(O)ccc3n2C)CC1
2. CN1CCN(C(=O)c2cc3c(C=O)c(O)ccc3s2)CC1
3. COc1cc2c(C)c(C)c(=O)oc2c(C=O)c1O
4. COCCNC(=O)CCc1c(COC)c2cc(OC)c(O)c(C=O)c2oc1=O

["> 10 µM", "> 10 µM", "> 10 µM", "> 10 µM"]
